Source of measurements: PubChem BioAssay (NCI)

- Tested on: KM12 colon
- assay_explanation: NCI-60 one-dose screen, 48 h (100 = growth as untreated, 0 = no growth, -100 = all killed)
- condition_description: 10 µM unless noted
Compounds without any hit were thinned out: in the full panel of roughly 83,000, 20% have a hit.
# growth per record follows

[
  {
    "compound": "O=C(CCc1nnc(Cn2cnc3nc[nH]c3c2=O)o1)c1nc2ncccc2[nH]1",
    "growth / %": 105
  },
  {
    "compound": "CC(=O)OC[C@]12CCC(C)(C)C[C@H]1[C@@]1(O)[C@H](O)C[C@@H]3[C@@]4(C)CCCNC(C)(C)[C@@H]4CC[C@@]3(C)[C@]1(C)CC2",
    "growth / %": 113
  },
  {
    "compound": "Cc1noc(C)c1C(=O)OCc1coc2ccccc2c1=O",
    "growth / %": 95.8
  },
  {
    "compound": "N#CC1=C(N)Oc2c(sc3c(Br)cccc23)C1c1ccc(F)cc1 (stereo not given)",
    "growth / %": 23.1
  },
  {
    "compound": "O=C(CSc1nc2sc3c(c2c(=O)n1-c1ccccc1)CCCCC3)N/N=C/c1ccc(F)cc1",
    "growth / %": 42.6
  },
  {
    "compound": "COc1cccc(CNc2ncnc3c2ncn3C2OC(CO)C(O)C2O)c1O (stereo not given)",
    "growth / %": 36.6
  },
  {
    "compound": "CCN(CC)CCOc1ccc(-c2c(-c3ccccc3)c(=O)oc3ccccc23)cc1",
    "growth / %": 100
  },
  {
    "compound": "O=C(Cn1c(-c2ccc([N+](=O)[O-])cc2)nc2ccccc21)NNC(=O)c1cccnc1",
    "growth / %": 87.2
  },
  {
    "compound": "Cc1nc2ncnc(Cl)c2[nH]1",
    "growth / %": 102
  },
  {
    "compound": "CCc1ccc(C(=O)/C=C/C23c4ccccc4C(c4ccccc42)C2C(=O)NC(=O)C23)cc1 (stereo not given)",
    "growth / %": 11.2
  }
]

----------
- System: SN12C renal
- assay_explanation: NCI-60 one-dose screen, 48 h
- condition_description: 10 µM unless noted
About 83,000 compounds went through this panel and 20% of them were active in at least one assay; those are over-represented in the sample as a whole. Calls of active or inactive are those of the source. How the source made its calls: active means growth percent below 10; inactive means the rest.
Classes used: active, inactive

[
  {
    "compound": "O=C1N(Cc2ccccc2Cl)c2ccccc2C12NN=C(c1cccc(Cl)c1)S2 (stereo not given)",
    "target_entity": "SN12C renal",
    "class_label": "active"
  },
  {
    "compound": "COC(=O)c1ccc2c(c1)C(=O)c1c-2n(CCCN)c(=O)c2cc([N+](=O)[O-])ccc12",
    "target_entity": "SN12C renal",
    "class_label": "active"
  },
  {
    "compound": "CC(C)n1cnc2c(=S)nc[nH]c21",
    "target_entity": "SN12C renal",
    "class_label": "inactive"
  },
  {
    "compound": "CN([O-])c1nc(N(C)[O-])nc(N2CCOCC2)n1.CN([O-])c1nc(N(C)[OH2+])nc(N2CCOCC2)n1.[Fe+3]",
    "target_entity": "SN12C renal",
    "class_label": "inactive"
  },
  {
    "compound": "CCOC(=O)c1cc(C(=O)c2cc(OC)c(OC)c(OC)c2)n2ccc(-c3ccncc3)cc12",
    "target_entity": "SN12C renal",
    "class_label": "inactive"
  }
]

----------
- Tested on: MDA-MB-231 breast
- assay_explanation: NCI-60 one-dose screen, 48 h (100 = growth as untreated, 0 = no growth, -100 = all killed)
- condition_description: 10 µM unless noted
Compounds without any hit were thinned out: in the full panel of roughly 83,000, 20% have a hit.
recorded_metric: growth (%)

[
  {
    "structure_as_smiles": "O=CC1(C2(C=O)c3ccccc3-c3ccccc32)c2ccccc2-c2ccccc21",
    "unit_string": "%",
    "measured_value": -12.5
  },
  {
    "structure_as_smiles": "COCCNC(=O)c1ccc(-c2nc3ccc4[nH]ncc4c3c3c2CCCC3)cc1",
    "unit_string": "%",
    "measured_value": 50.4
  },
  {
    "structure_as_smiles": "O=c1c2cc(-c3ccccc3)sc2nc2sc(-c3ccccc3)nn12",
    "unit_string": "%",
    "measured_value": 110
  },
  {
    "structure_as_smiles": "CCOC(=O)C1=C(NC)OCC1=O",
    "unit_string": "%",
    "measured_value": 107
  },
  {
    "structure_as_smiles": "O=C(NNc1nccc(Nc2ccc(S(=O)(=O)Nc3ccncc3)cc2)n1)c1ccccc1",
    "unit_string": "%",
    "measured_value": 90.9
  },
  {
    "structure_as_smiles": "O=C(Nc1ccc(-c2nc(N3CCOCC3)c3cccn3n2)cc1)Nc1cccnc1",
    "unit_string": "%",
    "measured_value": -0.801
  }
]

----------
- Test system: U251 CNS
- assay_explanation: NCI-60 one-dose screen, 48 h
- condition_description: 10 µM unless noted
Compounds without any hit were thinned out: in the full panel of roughly 83,000, 20% have a hit. Calls of active or inactive are those of the source. Rule for the calls: active = growth percent below 10; inactive = the rest.
Possible outcomes: active, inactive

[
  {
    "compound": "Cc1ccc(Cl)cc1Nc1nc(C(F)(F)F)ccc1C(=O)N/N=C/c1cccnc1",
    "class_label": "active"
  },
  {
    "compound": "C=C(C)[C@@H]1CC[C@]2(C(=O)NCC#CCN3CCN(C)CC3)CC[C@]3(C)[C@H](CC[C@@H]4[C@@](C)(CCC#N)[C@H](C(=C)C)CC[C@]43C)[C@@H]12",
    "class_label": "inactive"
  },
  {
    "compound": "CC(C)(C)c1cc(-c2nc3ccc(N4CCN(S(C)(=O)=O)CC4)cc3[nH]2)cc(C(C)(C)C)c1O",
    "class_label": "inactive"
  },
  {
    "compound": "COc1ccc(-c2nc3c(c(-c4ccccc4)nn3-c3ccccc3)c(-c3ccc(N4CCN(C)CC4)cc3)c2C#N)cc1",
    "class_label": "inactive"
  },
  {
    "compound": "O=C1/C(=C/c2ccc(Cl)cc2)COc2ccc(O)cc21",
    "class_label": "inactive"
  },
  {
    "compound": "COc1ccc2cc(C(=O)c3coc4ccc(O)cc34)ccc2c1",
    "class_label": "inactive"
  },
  {
    "compound": "Fc1cc2c(cc1Cl)N(c1ncnc3ccc(-c4cnc5[nH]ncc5c4)cc13)CC2",
    "class_label": "inactive"
  },
  {
    "compound": "Cc1c(-c2nc3ccc(F)cc3c(=O)[nH]2)c2ccccc2n1C",
    "class_label": "inactive"
  },
  {
    "compound": "CSc1nc2sc3c(c2c(=O)n1-c1ccc([N+](=O)[O-])cc1)CCCCC3",
    "class_label": "inactive"
  },
  {
    "compound": "COc1ccc2nc(NC(=O)CSc3nnc4n3S(=O)(=O)c3ccccc3N4C)sc2c1",
    "class_label": "inactive"
  },
  {
    "compound": "COc1cc(N2C(=O)[C@H](O)C2c2ccc(SC)cc2)cc(OC)c1OC (some centres undefined)",
    "class_label": "inactive"
  },
  {
    "compound": "CCN(CC)CCOc1ccc(C(=C(C)c2ccc(Cl)cc2)c2ccc(OCCN(CC)CC)cc2)cc1",
    "class_label": "active"
  },
  {
    "compound": "C[C@]12CC[C@@H]3c4ccc(O)c([N+](=O)[O-])c4CC[C@H]3[C@@H]1CCC2=O",
    "class_label": "inactive"
  },
  {
    "compound": "O=C1/C(=C/c2ccc(Cl)cc2)COc2ccc(O)c(O)c21",
    "class_label": "active"
  },
  {
    "compound": "CN(C)CCCC1(c2ccc(F)cc2)OCc2cc(-c3cccc4[nH]ccc34)ccc21 (centres undefined)",
    "class_label": "active"
  },
  {
    "compound": "CC1(c2ccccc2O)NN=C(/N=C/c2cccc([N+](=O)[O-])c2)N1C(Cc1c[nH]c2ccccc12)C(=O)O (centres undefined)",
    "class_label": "inactive"
  },
  {
    "compound": "COc1cc2oc(-c3cccc(NC(=O)c4cccc(Br)c4)c3)cc(=O)c2c(OC)c1OC",
    "class_label": "inactive"
  },
  {
    "compound": "O=C(CCc1nnc(Cn2cnc3nc[nH]c3c2=O)o1)c1nc2ncccc2[nH]1",
    "class_label": "inactive"
  },
  {
    "compound": "CCCC(=O)NC(c1ccc2c(c1)OCO2)c1ccc2cccnc2c1O (centres undefined)",
    "class_label": "inactive"
  },
  {
    "compound": "O=C1/C(=C\\c2cn(-c3ccccc3)nc2-c2ccc(-c3cccs3)cc2)CCc2ccccc21",
    "class_label": "inactive"
  },
  {
    "compound": "CCCCCCCCn1ccc2cc(NC(=O)CN3CCN(c4nc(C)cc(Cl)n4)CC3)ccc21",
    "class_label": "inactive"
  },
  {
    "compound": "O=C(CI)NC1Oc2ccccc2-c2oc(=O)c(-c3ccccc3)cc21 (centres undefined)",
    "class_label": "active"
  },
  {
    "compound": "Cc1oc(-c2ccc(Cl)cc2)nc1/C=C/C(=O)c1ccccc1",
    "class_label": "inactive"
  },
  {
    "compound": "CC(C)(C)n1cc(-c2ccnc(NCCNS(=O)(=O)c3cccc(F)c3)c2)c(-c2ccccc2)n1",
    "class_label": "inactive"
  },
  {
    "compound": "C#Cc1cccc(Nc2ncnc3ccc(-c4cnc(N)nc4)cc23)c1",
    "class_label": "inactive"
  },
  {
    "compound": "Cc1ccc(Sc2nnc(/N=C3\\C(=O)Nc4ccccc43)s2)cc1",
    "class_label": "inactive"
  },
  {
    "compound": "C/C(=N/O)c1ccc(F)cc1",
    "class_label": "inactive"
  },
  {
    "compound": "COc1cc(/C=C\\c2cc(/C=C\\c3ccc(O)c(OC)c3)n(C(=O)COc3ccc(Cl)cc3Cl)n2)ccc1O",
    "class_label": "inactive"
  },
  {
    "compound": "COc1cc(CNC(=O)/C=C/C=C/c2ccc3c(c2)OCO3)ccc1OCc1cn(-c2ccc(C)c(C)c2)nn1",
    "class_label": "inactive"
  },
  {
    "compound": "COC(=O)c1cc(-c2ccc(OC)cc2)[nH]c1N/N=C/c1c(Cl)cccc1Cl",
    "class_label": "active"
  },
  {
    "compound": "Cc1ccc(/C=N/Nc2nc(Nc3ccccc3)nc(-n3nc(C)cc3C)n2)cc1",
    "class_label": "inactive"
  },
  {
    "compound": "CCC(=C(c1ccc(OCCN2CCCC2)cc1)c1ccc(OCCN2CCCC2)cc1)c1ccc(Cl)cc1",
    "class_label": "active"
  },
  {
    "compound": "N#Cc1c(N)nnn1Cc1cc(=O)oc2c1ccc1ccccc12",
    "class_label": "inactive"
  },
  {
    "compound": "COc1cccc(NC(=O)Cn2cc(CN3CCN(c4ccnc5cc(Cl)ccc45)CC3)nn2)c1",
    "class_label": "inactive"
  },
  {
    "compound": "O=C1c2c(c3c4ccc(Br)cc4oc3c3[nH]c4ccccc4c23)C(=O)N1O",
    "class_label": "inactive"
  },
  {
    "compound": "COc1cc(-c2cc(-c3ccc(N(C)C)cc3)nc(N3CCC(O)CC3)c2C#N)cc(OC)c1OC",
    "class_label": "inactive"
  },
  {
    "compound": "CC(=O)n1nc(C(=O)OC(C)C)c2cc(C)c(C)cc21",
    "class_label": "inactive"
  },
  {
    "compound": "NC(=O)c1c(NC(=O)c2ccccc2)sc2c1CCC(=O)C2",
    "class_label": "inactive"
  },
  {
    "compound": "O=C(/C=C/c1cccs1)c1ccc(Cl)nc1",
    "class_label": "inactive"
  }
]
